target: Matrix metalloproteinase-9 (Homo sapiens, UniProt P14780); experiment: Inhibition of recombinant human activated-MMP9 using Mca-Lys-Pro-Leu-Gly-Leu-Dap(Dnp)-Ala-Arg-NH2 as fluorogenic substrate incubated for 4 hrs followed by substrate addition measured every 10 secs for 20 mins by fluorometric assay
Sequence (P14780 whole entry): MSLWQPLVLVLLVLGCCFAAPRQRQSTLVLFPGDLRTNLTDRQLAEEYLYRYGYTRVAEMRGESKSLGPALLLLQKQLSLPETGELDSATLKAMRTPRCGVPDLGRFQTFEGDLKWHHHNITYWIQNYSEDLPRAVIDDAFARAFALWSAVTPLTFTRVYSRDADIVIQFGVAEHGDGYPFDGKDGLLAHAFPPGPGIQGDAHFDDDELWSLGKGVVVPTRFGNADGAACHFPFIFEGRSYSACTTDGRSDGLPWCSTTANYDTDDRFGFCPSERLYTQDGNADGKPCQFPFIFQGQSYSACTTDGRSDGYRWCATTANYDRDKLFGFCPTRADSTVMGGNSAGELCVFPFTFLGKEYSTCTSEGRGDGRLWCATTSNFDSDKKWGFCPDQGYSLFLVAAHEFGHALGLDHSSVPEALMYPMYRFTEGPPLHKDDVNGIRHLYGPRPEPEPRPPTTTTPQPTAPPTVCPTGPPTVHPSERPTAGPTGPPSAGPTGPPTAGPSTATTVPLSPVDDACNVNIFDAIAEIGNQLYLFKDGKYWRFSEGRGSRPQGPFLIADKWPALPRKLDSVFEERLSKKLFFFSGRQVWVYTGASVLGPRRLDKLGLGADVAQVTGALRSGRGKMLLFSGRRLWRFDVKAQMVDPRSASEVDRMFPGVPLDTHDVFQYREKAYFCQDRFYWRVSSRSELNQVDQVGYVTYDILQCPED
ENDPOINT NAME: IC50 (nM)

Previously resolved entries follow.
| ITEM SMILES | IC50 (nM) |
| --- | --- |
| CC(C)ON([C@H](CCNS(C)(=O)=O)C(=O)NO)S(=O)(=O)c1ccc(-c2ccccc2)cc1 | 8.6 |
| CC(=O)NCC[C@H](C(=O)NO)N(OC(C)C)S(=O)(=O)c1ccc(-c2ccccc2)cc1 | 6.5 |
| CC(C)ON([C@H](CCNC(=O)c1ccccc1)C(=O)NO)S(=O)(=O)c1ccc(-c2ccccc2)cc1 | 9 |

(P) CC(C)ON([C@H](CCNC(=O)Cc1ccccc1)C(=O)NO)S(=O)(=O)c1ccc(-c2ccccc2)cc1
(Q) CC(=O)NCC[C@H](C(=O)NO)N(OC(C)C)S(=O)(=O)c1ccccc1
(R) COc1ccc(-c2ccc(S(=O)(=O)N(OC(C)C)[C@H](CCNC(C)=O)C(=O)NO)cc2)cc1
(S) COc1ccc(-c2ccc(S(=O)(=O)N(OC(C)C)[C@H](CCN3C(=O)c4ccccc4C3=O)C(=O)NO)cc2)cc1
(T) COc1ccc(-c2ccc(S(=O)(=O)N(OC(C)C)[C@H](CCNC(=O)Cc3ccccc3)C(=O)NO)cc2)cc1
q: Exam item: list the entries in increasing order of IC50. State the ranking by listing the labels in the requested order.
a: S, R, T, P, Q

---

biological target: Interstitial collagenase (Homo sapiens); assay: Inhibition of recombinant human activated-MMP1 using Mca-Lys-Pro-Leu-Gly-Leu-Dap(Dnp)-Ala-Arg-NH2 as fluorogenic substrate incubated for 4 hrs followed by substrate addition measured every 10 secs for 20 mins by fluorometric assay
Sequence (P03956 whole entry): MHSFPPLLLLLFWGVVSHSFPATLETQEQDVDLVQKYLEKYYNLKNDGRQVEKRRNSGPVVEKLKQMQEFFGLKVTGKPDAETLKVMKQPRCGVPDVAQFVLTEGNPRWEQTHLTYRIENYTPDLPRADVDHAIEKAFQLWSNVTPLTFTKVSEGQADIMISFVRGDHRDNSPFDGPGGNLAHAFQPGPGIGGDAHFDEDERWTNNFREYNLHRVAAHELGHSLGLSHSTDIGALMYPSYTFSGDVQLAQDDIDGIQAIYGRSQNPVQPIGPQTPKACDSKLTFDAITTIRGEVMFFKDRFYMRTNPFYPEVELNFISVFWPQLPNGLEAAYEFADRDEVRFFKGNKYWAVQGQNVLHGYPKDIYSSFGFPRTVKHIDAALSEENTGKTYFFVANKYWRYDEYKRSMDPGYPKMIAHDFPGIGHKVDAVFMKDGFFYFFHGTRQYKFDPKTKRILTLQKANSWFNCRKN
ENDPOINT NAME: IC50 (nM)

Previously resolved entries follow.
| ITEM SMILES | TARGET OF ASSAY | MEAS VALUE |
| --- | --- | --- |
| COc1ccc(-c2ccc(S(=O)(=O)N(OC(C)C)[C@H](CCN3C(=O)c4ccccc4C3=O)C(=O)NO)cc2)cc1 | Interstitial collagenase (Homo sapiens) | 200 |
| COc1ccc(-c2ccc(S(=O)(=O)N(OC(C)C)[C@H](CCNC(C)=O)C(=O)NO)cc2)cc1 | Interstitial collagenase (Homo sapiens) | 660 |
| COc1ccc(-c2ccc(S(=O)(=O)N(OC(C)C)[C@H](CCNC(=O)Cc3ccccc3)C(=O)NO)cc2)cc1 | Interstitial collagenase (Homo sapiens) | 1400 |
| CC(=O)NCC[C@H](C(=O)NO)N(OC(C)C)S(=O)(=O)c1ccccc1 | Interstitial collagenase (Homo sapiens) | 26000 |
| CC(C)ON([C@H](CCNS(C)(=O)=O)C(=O)NO)S(=O)(=O)c1ccc(-c2ccccc2)cc1 | Interstitial collagenase (Homo sapiens) | 320 |

(I) CC(C)ON([C@H](CCNC(=O)Cc1ccccc1)C(=O)NO)S(=O)(=O)c1ccc(-c2ccccc2)cc1
(II) CC(=O)NCC[C@H](C(=O)NO)N(OC(C)C)S(=O)(=O)c1ccc(-c2ccccc2)cc1
(III) CC(C)ON([C@H](CCNC(=O)c1ccccc1)C(=O)NO)S(=O)(=O)c1ccc(-c2ccccc2)cc1
q: Rank order required: IC50, descending. State the ranking by listing the labels in the requested order.
a: I, III, II
(I: 1300 nM, III: 780 nM, II: 280 nM)
